- Measured on: HIV Env of isolate 6041.v3.c23 (clade AC) (HIV)
- Assay method text: cell-based or functional assay
Measured property: IC50 (µg/ml) with constrains (µg/mL)
State just the number; it will be interpreted in µg/mL.

I'd like to know its IC50 (µg/ml) with constrains. The binder in question is ePGDM9 (antibody, V domains shown) VH: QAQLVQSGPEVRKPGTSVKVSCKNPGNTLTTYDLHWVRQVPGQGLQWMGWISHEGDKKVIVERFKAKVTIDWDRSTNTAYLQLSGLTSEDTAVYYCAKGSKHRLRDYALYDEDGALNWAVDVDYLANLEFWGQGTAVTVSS VL: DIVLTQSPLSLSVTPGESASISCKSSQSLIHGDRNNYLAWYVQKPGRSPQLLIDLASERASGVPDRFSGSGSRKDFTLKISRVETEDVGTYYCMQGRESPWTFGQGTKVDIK
0.002

Next binder: ePGDM13 (antibody, V domains shown) VH: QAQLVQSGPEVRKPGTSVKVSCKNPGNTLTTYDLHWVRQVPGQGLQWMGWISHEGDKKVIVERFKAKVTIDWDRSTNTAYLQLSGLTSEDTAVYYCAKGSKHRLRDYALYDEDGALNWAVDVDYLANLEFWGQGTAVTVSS VL: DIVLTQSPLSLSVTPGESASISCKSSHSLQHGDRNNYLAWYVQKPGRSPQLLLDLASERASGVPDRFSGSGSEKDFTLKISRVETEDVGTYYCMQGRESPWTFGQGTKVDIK
0.007

Thanks! And ePGDM5 (antibody, V domains shown) VH: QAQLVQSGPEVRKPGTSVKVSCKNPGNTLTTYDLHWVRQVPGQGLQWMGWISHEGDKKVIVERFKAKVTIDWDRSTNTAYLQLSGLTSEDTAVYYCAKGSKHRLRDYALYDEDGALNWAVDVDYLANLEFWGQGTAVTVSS VL: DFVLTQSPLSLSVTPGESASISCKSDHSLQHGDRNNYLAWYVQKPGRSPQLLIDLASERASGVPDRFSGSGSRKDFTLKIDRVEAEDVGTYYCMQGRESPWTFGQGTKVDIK ?
0.005

Also PGDM1400 (antibody, V domains shown) VH: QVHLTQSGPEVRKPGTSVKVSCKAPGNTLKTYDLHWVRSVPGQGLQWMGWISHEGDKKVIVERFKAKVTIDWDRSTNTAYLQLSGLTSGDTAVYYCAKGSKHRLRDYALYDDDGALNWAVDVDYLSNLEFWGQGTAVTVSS VL: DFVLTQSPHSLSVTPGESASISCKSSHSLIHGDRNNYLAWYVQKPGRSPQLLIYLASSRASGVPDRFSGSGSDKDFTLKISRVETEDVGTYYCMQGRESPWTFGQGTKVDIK , if possible.
0.016

Ref: patent US20230134571A1
